Tested on: Saccharomyces cerevisiae;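 note: PSI is a weighted mean of sequencing reads over stability bins, variants kept only with over 10 reads, mCherry proximal and sfGFP distal, peptide attached via GGGS linker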
PROCEDURE TEXT: protein stability index of tFT-peptide fusion (C-terminal peptide) (PSI (0-1 scale)); higher = more stable (slower turnover)
CONDITIONS: genetic background: das1 deletion; temperature: 37 C
Documented protein stability index across a set of sequences
Please reply with the number alone, leaving off any unit.

Worked cases, protein stability index given:
Qu. For the sequence shown here, LLPYSLSLALRA , give the reported protein stability index.
Ans. 0.468

Qu. Another sequence: FIICAASWFFLG
Ans. 0.62

Qu. Another sequence: NECLSSKWLRIC
Ans. 0.726

Qu. Another sequence: GGGGGGGDVLVW
Ans. 0.426

Qu. Another sequence: VGGSRGARLGVG
Ans. 0.426

// next entry
Qu. For the sequence shown here, GILVVAASICYV , give the reported protein stability index.
Ans. 0.522
